Measured IC50 accompanies every entry in the list below.
System: panel of HIV-1 isolates in human PBMCs
procedure.details: PBMC antiviral assay against a panel of HIV-1 isolates (RT activity)
Assay type: cell-based
condition.set: Human immunodeficiency virus 1, PBMC, isolate 93BR029, PBMC
Counter-ions that a name gives are not always drawn.
quantity.name: IC50 (nM)

* C=C(C)[C@@H]1CC[C@]2(CCNCCN3CCN(Cc4ccccc4)CC3)CC[C@]3(C)[C@H](CC[C@@H]4[C@@]5(C)CC[C@H](OC(=O)CC(C)(C)C(=O)O)C(C)(C)[C@@H]5CC[C@]43C)[C@@H]12 [Compound 51hh] | 4.1
* C=C(C)[C@@H]1CC[C@]2(CCNC3CCN(CCO)CC3)CC[C@]3(C)[C@H](CC[C@@H]4[C@@]5(C)CC[C@H](OC(=O)CC(C)(C)CC(=O)O)C(C)(C)[C@@H]5CC[C@]43C)[C@@H]12 [Compound 51f, Bis(trifluoroacetate) Salt] | 5.1
* C=C(C)[C@@H]1CC[C@]2(CCNCCN3CCN(Cc4cccc(Cl)c4)CC3)CC[C@]3(C)[C@H](CC[C@@H]4[C@@]5(C)CC[C@H](OC(=O)CC(C)(C)C(=O)O)C(C)(C)[C@@H]5CC[C@]43C)[C@@H]12 [Compound 51o] | 14.8
* C=C(C)[C@@H]1CC[C@]2(CCNCCN3CCS(=O)(=O)CC3)CC[C@]3(C)[C@H](CC[C@@H]4[C@@]5(C)CC[C@H](OC(=O)CC(C)(C)C(=O)O)C(C)(C)[C@@H]5CC[C@]43C)[C@@H]12 [Compound 51ee] | 0.9
* C=C(C)[C@@H]1CC[C@]2(CCNCCN3CCN(Cc4ccc(Cl)cc4)CC3)CC[C@]3(C)[C@H](CC[C@@H]4[C@@]5(C)CC[C@H](OC(=O)CC(C)(C)C(=O)O)C(C)(C)[C@@H]5CC[C@]43C)[C@@H]12 [Compound 51n] | 18.4
* C=C(C)[C@@H]1CC[C@]2(CCNCCN3CCN(Cc4ccc5ccccc5c4)CC3)CC[C@]3(C)[C@H](CC[C@@H]4[C@@]5(C)CC[C@H](OC(=O)CC(C)(C)C(=O)O)C(C)(C)[C@@H]5CC[C@]43C)[C@@H]12 [Compound 51r] | 22.3

The reported numbers originate from patent US11236122B2.
